Biological target: HLA-A*01:01
Assay: IEDB peptide-MHC binding, purified MHC/competitive/radioactivity; filed as Kd, often an IC50 or EC50 that approximates it; bounds were set here for any values at or beyond the usual limits of such assays
Settings: source organism: Dengue virus 3 Martinique/1243/1999
measure: Kd

Past entries and their recorded results:
input_sequence: SSSMRKTDWL
Kd: ≥ 49.7 µM

input_sequence: VTYLALIATF
Kd: ≥ 50.8 µM

input_sequence: KLELKGMSY
Kd: 0.391 µM

Okay, now this sequence:
Requested field: Kd. Item: ISKIPGGAMY
≥ 23.8 µM

---

Attribute: Kd
Biological target: HLA-B*58:01
Assay: IEDB peptide-MHC binding, purified MHC/direct/fluorescence; filed as Kd, often an IC50 or EC50 that approximates it; bounds were set here for any values at or beyond the usual limits of such assays
Settings: source organism: Zaire ebolavirus

input_sequence: GHMMVIFRL
Kd: ≥ 20 µM

Field: next sequence
Which measured Kd value corresponds to YDRLASTVI ?
≥ 20 µM
